Tested on: CCRIS mutagenicity, Ames/micronucleus/aberration tests
Assay: CCRIS mutagenicity studies
Details: Test System: AMES SALMONELLA TYPHIMURIUM; Strain/Indicator: TA1537; Metabolic Activation: HAMSTER, LIVER, S-9, AROCLOR 1254 (30%); Method: PREINCUBATION
Activity calls are given as the source filed them. No rule for the calls is given here.
Returns: one label drawn from 1 (active), -1 (inactive)

| SMILES REPRESENTATION | LABEL CLASS |
| --- | --- |
| CC=C(C)C#N | -1 |
| CS(C)=O | -1 |
| NC(N)=NC(=O)c1nc(Cl)c(N)nc1N | 1 |
| CC(C)CO | -1 |
| O=[N+]([O-])c1ccc(O)c([N+](=O)[O-])c1 | -1 |

Hello, I am checking results. What call was entered for `Oc1c(Cl)ccc(Cl)c1Cl` ?
-1

Hello, I am checking results. What call was entered for `CN(C)CCO` ?
-1

Hello, I am checking results. What call was entered for `Cl/C=C\Cl` ?
-1

Hello, I am checking results. What call was entered for `Cc1ccc(CO)cc1` ?
-1

Hello, I am checking results. What call was entered for `Oc1ccc(Nc2ccc3ccccc3c2)cc1` ?
-1
